Assign MSRA (% modification) 10 μM 0.50 hr to each entry below.
molecular target: GDP-loaded KRAS (1-169) G12C, C51S, C80L, C118S (Homo sapiens, UniProt P01116, C118S/C51S/C80L/G12C); construct: GDP-loaded KRAS (1-169) G12C, C51S, C80L, C118S; test: Mass Spectrometry Reactivity Assay (MSRA): covalent adduct of compound and KRAS G12C, Percent Modification; format: binding; conditions: 10 μM compound, 0.50 hr
Give bare numbers, in %.

// solved cases for MSRA (% modification) 10 μM 0.50 hr follow
1. C=CC(=O)N1CCN(c2ncnc3c(Oc4c(C)c(Cl)cc5[nH]ncc45)nc(C#N)cc23)CC1 [Example 28A] : 61
2. C=CC(=O)N1CCN(c2nc(OCC(C)(C)O)nc3c(Oc4c(Cl)c(F)cc5[nH]ncc45)nc(Cl)cc23)CC1 [Example 13G] : 80
3. C=CC(=O)N1CCN(c2ncnc3c(Oc4c(C)c(Cl)cc5[nH]ncc45)nc(C#N)cc23)C[C@H]1C [Example 27A] : 30

Could I get MSRA (% modification) 10 μM 0.50 hr for every one of these entries?
1. C=CC(=O)N1CCN(c2nc(NC3CNC(=O)C3)nc3c(Oc4c(C)ccc5[nH]ncc45)cccc23)CC1 (centres unmarked) [Example 15F]
2. C=CC(=O)N1CCN(c2nc(N3CC(CN(C)C)C3)nc3c(Oc4c(C)ccc5[nH]ncc45)cccc23)CC1 [Example 10E]
3. C=CC(=O)N1CCN(c2ncnc3c(Oc4c(Cl)c(F)cc5[nH]ncc45)cccc23)CC1 [Example 18C]
4. C=CC(=O)N1CCN(c2nc(OC[C@H]3CCCN3C)nc3c(Oc4c(Cl)c(F)cc5[nH]ncc45)nccc23)CC1 [Example 17E]
5. C=CC(=O)N1CCN(c2ncnc3c(Oc4c(Cl)c(C)cc5[nH]ncc45)nc(C#N)cc23)CC1 [Example 19A]

Response given:
1: 13; 2: 21; 3: 50; 4: 83; 5: 33

Could I get MSRA (% modification) 10 μM 0.50 hr for every one of these entries?
1. C=CC(=O)N1CCN(c2ncnc3c(Oc4c(Cl)c(F)cc5[nH]ncc45)cccc23)C[C@H]1C [Example 17C]
2. C=CC(=O)N1CCN(c2ncnc3c(Cc4c(C)ccc5[nH]ncc45)nccc23)CC1 [Example 02D]
3. C=CC(=O)N1CCN(c2nc(NC(C)c3nncn3C)nc3c(Oc4c(C)ccc5[nH]ncc45)cccc23)CC1 (centres unmarked) [Example 03F]
4. C=CC(=O)N1CCN(c2ncnc3c(Oc4c(Cl)ccc5[nH]ncc45)cccc23)CC1 [Example 08C]
5. C=CC(=O)N1CCN(c2nc(OCCCN(C)C)nc3c(Oc4c(Cl)c(C)cc5[nH]ncc45)cc(Cl)cc23)CC1 [Example 12E]
6. C=CC(=O)N1CCN(c2ncnc3c(Oc4cc(O)cc5ccccc45)nc(C)cc23)CC1

Response given:
1. 24
2. 12
3. 12
4. 29
5. 79
6. 19

Could I get MSRA (% modification) 10 μM 0.50 hr for every one of these entries?
1. C=CC(=O)N1CCN(c2nc(OCCN(C)C)nc3c(Oc4c(C)ccc5[nH]ncc45)cccc23)CC1 [Example 03E]
2. C=CC(=O)N1CCN(c2ncnc3c(Oc4c(Cl)c(F)cc5[nH]ncc45)nccc23)C[C@@H]1C [Example 26A]
3. C=CS(=O)(=O)N1CCN(c2ncnc3c(Oc4c(Cl)c(C)cc5[nH]ncc45)nccc23)CC1
4. C=CC(=O)N1CCN(c2nc(NCCc3nncn3C)nc3c(Oc4c(C)ccc5[nH]ncc45)cccc23)CC1 [Example 16F]
5. C=CC(=O)N1CCN(c2ncnc3c(Oc4c(Cl)ccc5[nH]ncc45)cccc23)[C@@H](C)C1 [Example 09C]
6. C=CC(=O)N1CCN(c2ncnc3c(Oc4c(Cl)c(F)cc5[nH]ncc45)nccc23)C[C@H]1C [Example 25A]
7. C=CC(=O)N1CCN(c2nc(N3CC(N(C)C)C3)nc3c(Oc4c(Cl)c(C)cc5[nH]ncc45)nccc23)CC1 [Example 04E]

Response given:
[40, 14, 25, 16, 34, 17, 62]

Could I get MSRA (% modification) 10 μM 0.50 hr for every one of these entries?
1. C=CC(=O)N1CCN(c2ncnc3c(Oc4c(Cl)ccc5[nH]ncc45)nccc23)CC1 [Example 06A]
2. C=CC(=O)N1CCN(c2ncnc3c(Oc4c(C)c(Cl)cc5[nH]ncc45)cccc23)CC1CC#N (centres unmarked) [Example 22C]
3. C=CC(=O)N1CCN(c2nc(NCC3CC(=O)N(C)C3)nc3c(Oc4c(C)ccc5[nH]ncc45)cccc23)CC1 (centres unmarked) [Example 04F]
4. C=CC(=O)N1CCN(c2nc(O[C@H]3Cc4nccn4C3)nc3c(Oc4c(C)ccc5[nH]ncc45)cccc23)CC1 [Example 08F]
5. C=CC(=O)N1CCN(c2nc(OC[C@@H]3COCCN3C)nc3c(Oc4c(Cl)c(F)cc5[nH]ncc45)nccc23)CC1 [Example 03H]
6. C=CC(=O)N1CCN(c2ncnc3c(Oc4c(C)c(Cl)cc5[nH]ncc45)nc(Cl)cc23)CC1 [Example 31A]
7. C=CC(=O)N1CCN(c2ncnc3c(Oc4c(Cl)c(C)cc5[nH]ncc45)nc(Cl)cc23)CC1 [Example 15A]
8. C=CC(=O)N1CCN(c2nc(OC[C@H]3CCC(=O)N3)nc3c(Oc4c(C)ccc5[nH]ncc45)cccc23)CC1 [Example 10F]

Response given:
1. 26
2. 75
3. 43
4. 72
5. 72
6. 79
7. 67
8. 65
